# Tested on: NCI/ADR-RES ovarian
# measurement.protocol: NCI-60 one-dose screen, 48 h (100 = growth as untreated, 0 = no growth, -100 = all killed)
# assay.conditions: 10 µM unless noted
This is part of a sample that, as a whole, favours compounds with a hit. Of some 83,000 tested, about 20% had one in any assay.
Output YES for records whose growth is lower than 60%, NO for records at or above 60%.

sample.smiles	assigned.category
O=C(c1ccccc1)c1ccc(Oc2ccc([N+](=O)[O-])cc2[N+](=O)[O-])cc1	YES
COc1cc(/C=C/c2cc(/C=C/c3ccc(O)c(OC)c3)n(C(=O)Cc3ccccc3)n2)ccc1O	YES
CCSc1nc(Nc2ccc(S(=O)(=O)Nc3ccon3)cc2)c(C#N)c(-c2cccc(Br)c2)n1	NO
Nc1ccc(Oc2c(F)c(F)c(Oc3ccc(N)cc3)c(F)c2F)cc1	NO
